# testSystem: T1, DFNB31_1, Q9P202
# T1 sequence (Q9P202 135-233, limits assumed, looked up): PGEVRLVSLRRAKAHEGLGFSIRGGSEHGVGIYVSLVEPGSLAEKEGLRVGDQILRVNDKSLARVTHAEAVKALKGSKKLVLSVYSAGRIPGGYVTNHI
# protocolDescription: holdup assay
# Parameters: key: below the threshold = too weak to quantify, mostly under pKd 3.1 to 4
# experimentalConditions: plain residues with an end cap or a label only (N-terminal biotin on a linker: ado-ado)

binder	pKd
NIAESLESLV [PTPRZ1, P23471]	3.8
RFQQRMQTHV [KIRREL1, Q96J84]	3.52
AAVENKVTDL [PLXNB1, O43157]	3.47
QRPYRRGSEI [KCNJ18, B7U540]	3.9
KPGKGSETVV [FZD4, Q9ULV1]	3.91
LESTTVGTSV [KARS1, Q15046]	3.61
ARGPPRESEV [FAM110D, Q8TAY7]	3.75
APIAGFSSFV [SDK2, Q58EX2]	3.79
